# IC50 listing for each entry below
- targetEntity: HDAC3 (Homo sapiens (Human))
- Sequence (O15379 whole entry): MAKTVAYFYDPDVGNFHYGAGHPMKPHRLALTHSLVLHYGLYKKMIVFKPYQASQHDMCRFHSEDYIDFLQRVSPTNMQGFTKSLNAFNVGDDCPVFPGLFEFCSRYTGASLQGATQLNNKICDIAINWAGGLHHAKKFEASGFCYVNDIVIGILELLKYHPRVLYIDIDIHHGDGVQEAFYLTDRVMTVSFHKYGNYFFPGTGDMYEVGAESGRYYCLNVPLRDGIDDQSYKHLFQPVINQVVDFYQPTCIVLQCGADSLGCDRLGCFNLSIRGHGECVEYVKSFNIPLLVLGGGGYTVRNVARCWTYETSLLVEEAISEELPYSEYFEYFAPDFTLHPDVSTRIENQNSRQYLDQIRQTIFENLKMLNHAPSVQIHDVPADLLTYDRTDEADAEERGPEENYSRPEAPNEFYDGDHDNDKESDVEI
- Sequence (Q9Y618 395-489 partner): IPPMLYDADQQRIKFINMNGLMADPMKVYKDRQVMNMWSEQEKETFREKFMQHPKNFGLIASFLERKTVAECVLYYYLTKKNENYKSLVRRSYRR
- testProtocol: HDAC enzyme assay, HDAC3
- conditionInfo: read-out: HDAC3 IC50
measuredParameter: IC50 (nM)

>>> endpointresult("O=C(NO)c1cnc(NC2(c3cc(F)cc(F)c3)CCOCC2)nc1")
1220
>>> endpointresult("O=C(NO)c1cnc(Nc2c(Cl)cccc2Cl)nc1")
16300
>>> endpointresult("O=C(NO)c1cnc(NCc2cccs2)nc1")
361
>>> endpointresult("O=C(NO)c1cnc(Nc2cccc(C(F)(F)F)c2)nc1")
313
>>> endpointresult("O=C(NO)c1cnc(NCc2ccncc2)nc1")
299

* * *

- targetEntity: HDAC1 (Homo sapiens (Human), UniProt Q13547)
- Sequence (Q13547 whole entry): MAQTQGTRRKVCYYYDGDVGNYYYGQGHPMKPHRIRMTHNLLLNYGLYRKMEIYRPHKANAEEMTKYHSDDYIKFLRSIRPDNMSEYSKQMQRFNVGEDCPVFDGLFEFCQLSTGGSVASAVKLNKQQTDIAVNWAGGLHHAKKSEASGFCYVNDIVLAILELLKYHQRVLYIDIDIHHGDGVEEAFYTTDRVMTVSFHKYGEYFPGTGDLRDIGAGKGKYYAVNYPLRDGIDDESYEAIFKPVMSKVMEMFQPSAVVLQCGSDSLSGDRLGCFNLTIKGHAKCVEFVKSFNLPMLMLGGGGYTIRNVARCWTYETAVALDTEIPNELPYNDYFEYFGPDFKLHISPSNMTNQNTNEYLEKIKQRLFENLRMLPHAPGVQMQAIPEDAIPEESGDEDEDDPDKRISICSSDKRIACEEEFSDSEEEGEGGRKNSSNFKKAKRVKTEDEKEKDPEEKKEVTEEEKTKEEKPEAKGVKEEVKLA
- testProtocol: HDAC enzyme assay, HDAC1
- conditionInfo: read-out: HDAC1 IC50
pIC50: −log10 of the molar value.
measuredParameter: pIC50

>>> endpointresult("O=C(NO)c1cnc(NC2(c3ccc(C(F)(F)F)c(F)c3)CC2)nc1")
7.57
>>> endpointresult("O=C(NO)c1cnc(Nc2cccc(Cl)c2)nc1")
6.74
>>> endpointresult("O=C(NO)c1cnc(NC2(c3ccccc3)CCCC2)nc1")
6.15
>>> endpointresult("Cc1cc(F)cc(Nc2ncc(C(=O)NO)cn2)c1")
6.88
>>> endpointresult("O=C(NO)c1cnc(NC2(c3ccc(F)cc3)CCCC2)nc1")
6.23
>>> endpointresult("O=C(NO)c1cnc(NCc2ccccc2Cl)nc1")
6.96
>>> endpointresult("O=C(NO)c1cnc(NCc2ccc(-c3ccccc3)cc2)nc1")
7.22
>>> endpointresult("O=C(NO)c1cnc(NC(c2ccc(F)cc2)c2ccc(F)cc2)nc1")
6.65
>>> endpointresult("O=C(NO)c1cnc(NCc2ccc3c(c2)OCO3)nc1")
7.40
>>> endpointresult("COc1ccc(Cl)cc1C1(Nc2ncc(C(=O)NO)cn2)CC1")
6.41
>>> endpointresult("O=C(NO)c1cnc(NC2(c3cccc(F)c3F)CC2)nc1")
7.92
>>> endpointresult("O=C(NO)c1cnc(NC2(c3ccc(F)cc3Cl)CC2)nc1")
7.60
>>> endpointresult("O=C(NO)c1cnc(NC2(c3cccc(C(F)(F)F)c3)CC2)nc1")
7.57
>>> endpointresult("O=C(NO)c1cnc(NC2(c3ccccc3)CCCCC2)nc1")
5.65
>>> endpointresult("O=C(NO)c1cnc(NC2(c3cccc(F)c3)CCCCC2)nc1")
5.67
>>> endpointresult("O=C(NO)c1cnc(Nc2cccc(-c3ccncc3)c2)nc1")
7.06
>>> endpointresult("O=C(NO)c1cnc(Nc2cc(C(F)(F)F)cc(C(F)(F)F)c2)nc1")
5.85
>>> endpointresult("O=C(NO)c1cnc(NC2(c3ccco3)CC2)nc1")
6.70
>>> endpointresult("O=C(NO)c1cnc(Nc2ccc([N+](=O)[O-])c(C(F)(F)F)c2)nc1")
6.48
>>> endpointresult("O=C(NO)c1cnc(Nc2ccc(Cl)cc2)nc1")
6.69

* * *

- targetEntity: HDAC2 (Homo sapiens (Human), UniProt Q92769)
- Sequence (Q92769 whole entry): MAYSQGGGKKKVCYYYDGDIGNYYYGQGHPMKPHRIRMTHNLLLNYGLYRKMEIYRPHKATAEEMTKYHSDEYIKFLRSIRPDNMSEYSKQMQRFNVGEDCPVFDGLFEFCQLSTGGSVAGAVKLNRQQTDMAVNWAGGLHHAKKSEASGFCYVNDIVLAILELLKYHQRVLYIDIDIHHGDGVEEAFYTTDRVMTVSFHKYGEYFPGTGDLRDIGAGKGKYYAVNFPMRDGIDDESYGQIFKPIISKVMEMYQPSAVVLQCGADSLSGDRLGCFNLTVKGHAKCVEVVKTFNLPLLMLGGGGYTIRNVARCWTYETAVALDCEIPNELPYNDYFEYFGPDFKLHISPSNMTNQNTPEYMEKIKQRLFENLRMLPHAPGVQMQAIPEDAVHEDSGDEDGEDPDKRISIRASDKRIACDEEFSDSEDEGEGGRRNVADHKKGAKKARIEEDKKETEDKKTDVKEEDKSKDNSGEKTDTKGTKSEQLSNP
- testProtocol: HDAC enzyme assay, HDAC2
- conditionInfo: read-out: HDAC2 IC50
Param label: returns yes when IC50 < 100 nM, returns no otherwise, including exact equality.

>>> labelclass("CC(C)(Nc1ncc(C(=O)NO)cn1)c1ccc(C(F)(F)F)cc1")
"no"
>>> labelclass("O=C(NO)c1cnc(Nc2c(F)c(F)cc(F)c2F)nc1")
"no"
>>> labelclass("CC(C)(Nc1ncc(C(=O)NO)cn1)c1ccc(F)c(F)c1")
"no"
>>> labelclass("Cc1cc(C(F)(F)F)cc(C2(Nc3ncc(C(=O)NO)cn3)CC2)c1")
"yes"
>>> labelclass("Cc1ccccc1C1(Nc2ncc(C(=O)NO)cn2)CC1")
"yes"
>>> labelclass("O=C(NO)c1cnc(NC2(c3cc(Cl)cc(Cl)c3)CC2)nc1")
"yes"
>>> labelclass("Cc1cccc(C)c1CNc1ncc(C(=O)NO)cn1")
"no"
>>> labelclass("O=C(NO)c1cnc(NCc2cccnc2)nc1")
"no"
>>> labelclass("O=C(NO)c1cnc(NC2(c3ccc(F)cc3)CCCC2)nc1")
"no"
>>> labelclass("CC(C)(Nc1ncc(C(=O)NO)cn1)c1ccc(C(F)(F)F)cc1F")
"no"
>>> labelclass("O=C(NO)c1cnc(NCc2cnccn2)nc1")
"no"
>>> labelclass("O=C(NO)c1cnc(NC2(c3ccc(F)cc3F)CC2)nc1")
"yes"
>>> labelclass("Cc1cc(Nc2ncc(C(=O)NO)cn2)ccn1")
"no"
>>> labelclass("O=C(NO)c1cnc(NC(c2ccccc2)c2ccccc2)nc1")
"no"
>>> labelclass("COc1ccc(C2(Nc3ncc(C(=O)NO)cn3)CC2)cc1OC")
"yes"
>>> labelclass("O=C(NO)c1cnc(NCc2ccc(Cl)cc2)nc1")
"yes"
>>> labelclass("COc1cc(OC)cc(C2(Nc3ncc(C(=O)NO)cn3)CC2)c1")
"yes"
>>> labelclass("COc1ccc(C2(Nc3ncc(C(=O)NO)cn3)CCCCC2)cc1")
"no"
>>> labelclass("O=C(NO)c1cnc(NC2(c3ccccc3)CCCCC2)nc1")
"no"
>>> labelclass("O=C(NO)c1cnc(NC2(c3cccc(F)c3)CC2)nc1")
"no"
>>> labelclass("O=C(NO)c1cnc(Nc2c(Cl)cccc2Cl)nc1")
"no"
>>> labelclass("O=C(NO)c1cnc(Nc2cc(C(F)(F)F)cc(C(F)(F)F)c2)nc1")
"no"
>>> labelclass("COc1cc(Nc2ncc(C(=O)NO)cn2)cc(OC)c1")
"no"
